Tested on: ES cells
Experiment: 3-D high-density ES tissue constructs cytotoxicity
Assay type: cell-based
Settings: ratio between EC50 and Ig50
VALUE KIND: Rf (resistance factor)
One number for each entry.

O=C1NC(=O)C(c2ccccc2)(c2ccccc2)N1 :: 15.4
CC1(C)S[C@@H]2[C@H](NC(=O)Cc3ccccc3)C(=O)N2[C@H]1C(=O)O :: 30.7

Lab note: next molecule to report on.
Prompt line: For ES cells, provide Rf (resistance factor) of C[C@@H]1C[C@H]2[C@@H]3CCC4=CC(=O)C=C[C@]4(C)[C@@]3(F)[C@@H](O)C[C@]2(C)[C@@]1(O)C(=O)CO please.
Response line: 5.7
